Numbers sourced from ChEMBL document CHEMBL3526133.

Counter-ions that a name gives are not always drawn.
Cytochrome P450 1A2 (Homo sapiens) IC50 data
Sequence (P05177 whole entry): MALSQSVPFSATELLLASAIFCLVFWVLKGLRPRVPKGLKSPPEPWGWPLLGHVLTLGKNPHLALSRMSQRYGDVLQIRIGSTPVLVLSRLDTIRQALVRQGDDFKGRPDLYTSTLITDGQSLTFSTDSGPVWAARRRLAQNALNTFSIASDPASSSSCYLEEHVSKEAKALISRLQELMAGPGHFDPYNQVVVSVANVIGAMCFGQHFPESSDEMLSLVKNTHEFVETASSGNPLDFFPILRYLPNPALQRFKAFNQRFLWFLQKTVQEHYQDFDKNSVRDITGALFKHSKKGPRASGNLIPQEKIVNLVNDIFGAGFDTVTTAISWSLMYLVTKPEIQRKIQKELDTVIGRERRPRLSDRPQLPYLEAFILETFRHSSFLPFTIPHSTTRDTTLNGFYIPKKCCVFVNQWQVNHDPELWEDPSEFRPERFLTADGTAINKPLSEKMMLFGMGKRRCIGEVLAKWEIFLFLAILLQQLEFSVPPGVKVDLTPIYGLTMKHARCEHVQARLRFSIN

Take a look at these entries with their results.
INSERT INTO results (compound, propertylabel, reportedvalue) VALUES
  ('CC(C)COCC(CN(Cc1ccccc1)c1ccccc1)N1CCCC1 (stereo unspecified)', 'IC50', '> 30 µM'),
  ('Fc1ccc([C@@H]2CCNC[C@H]2COc2ccc3c(c2)OCO3)cc1 [PAROXETINE HYDROCHLORIDE]', 'IC50', '5.33 µM'),
  ('COc1ccc(CCN2CCC(Nc3nc4ccccc4n3Cc3ccc(F)cc3)CC2)cc1', 'IC50', '> 30 µM'),
  ('CCCSc1ccc2nc(NC(=O)OC)[nH]c2c1', 'IC50', '> 30 µM'),
  ('Cc1c(OCC(F)(F)F)ccnc1C[S+]([O-])c1nc2ccccc2[nH]1 (stereo unspecified)', 'IC50', '6.46 µM');

Okay, now this compound:
Please report IC50 for the following compound: O=c1[nH]c2ccccc2n1C1CCN(CCCC(c2ccc(F)cc2)c2ccc(F)cc2)CC1 [PIMOZIDE]
> 30 µM

----------
- targetOfAssay: Cytochrome P450 2C8 (Homo sapiens, UniProt P10632)
- Sequence (P10632 whole entry): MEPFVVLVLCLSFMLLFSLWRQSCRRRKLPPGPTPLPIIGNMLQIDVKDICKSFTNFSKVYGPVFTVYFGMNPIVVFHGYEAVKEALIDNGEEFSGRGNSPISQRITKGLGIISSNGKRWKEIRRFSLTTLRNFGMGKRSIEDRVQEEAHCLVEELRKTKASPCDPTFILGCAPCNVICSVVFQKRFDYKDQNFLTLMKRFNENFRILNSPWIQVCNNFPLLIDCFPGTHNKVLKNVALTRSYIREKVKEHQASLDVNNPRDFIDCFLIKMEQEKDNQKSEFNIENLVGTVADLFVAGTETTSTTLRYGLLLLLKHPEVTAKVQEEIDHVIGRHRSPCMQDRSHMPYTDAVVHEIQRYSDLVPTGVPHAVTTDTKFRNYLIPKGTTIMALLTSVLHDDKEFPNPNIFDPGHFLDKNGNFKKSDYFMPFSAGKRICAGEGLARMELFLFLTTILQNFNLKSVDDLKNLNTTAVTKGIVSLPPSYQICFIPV
pIC50: −log10 of the molar value. Where a name gives a salt, the structure may show the parent alone.
propertyLabel: pIC50

The cases that follow already have their pIC50 on record.
INSERT INTO measurements (compound, reportedvalue) VALUES
  ('O[C@@H](c1cc(C(F)(F)F)nc2c(C(F)(F)F)cccc12)[C@H]1CCCCN1 (relative stereo) [(S,R)-MEFLOQUINE]', '< 4.52'),
  ('COc1ccc(CCN2CCC(Nc3nc4ccccc4n3Cc3ccc(F)cc3)CC2)cc1', '< 4.52'),
  ('CC(C)COCC(CN(Cc1ccccc1)c1ccccc1)N1CCCC1 (centres undefined)', '< 4.52'),
  ('O=c1[nH]c2ccccc2n1C1CCN(CCCC(c2ccc(F)cc2)c2ccc(F)cc2)CC1 [PIMOZIDE]', '< 4.52'),
  ('Fc1ccc([C@@H]2CCNC[C@H]2COc2ccc3c(c2)OCO3)cc1 [PAROXETINE HYDROCHLORIDE]', '< 4.52');

With Cytochrome P450 2C8 (Homo sapiens, UniProt P10632) as the test system, provide measured pIC50 for this compound: Cc1ccccc1C(OCCN(C)C)c1ccccc1 (centres undefined)
< 4.52

Report value: pIC50, system: Cytochrome P450 2C8 (Homo sapiens, UniProt P10632), compound: CCCSc1ccc2nc(NC(=O)OC)[nH]c2c1
< 4.52

Name the recorded pIC50 of Cc1c(OCC(F)(F)F)ccnc1C[S+]([O-])c1nc2ccccc2[nH]1 (centres undefined) , assay system Cytochrome P450 2C8 (Homo sapiens, UniProt P10632).
5.24

Report the value of pIC50 obtained on Cytochrome P450 2C8 (Homo sapiens, UniProt P10632) for CC/C(=C(\c1ccccc1)c1ccc(OCCN(C)C)cc1)c1ccccc1 .
4.84

----------
Reported values of activity at 5 min, 30 µM for individual entries
- targetOfAssay: CYP2J2 (Homo sapiens, UniProt P51589)
- Sequence (P51589 whole entry): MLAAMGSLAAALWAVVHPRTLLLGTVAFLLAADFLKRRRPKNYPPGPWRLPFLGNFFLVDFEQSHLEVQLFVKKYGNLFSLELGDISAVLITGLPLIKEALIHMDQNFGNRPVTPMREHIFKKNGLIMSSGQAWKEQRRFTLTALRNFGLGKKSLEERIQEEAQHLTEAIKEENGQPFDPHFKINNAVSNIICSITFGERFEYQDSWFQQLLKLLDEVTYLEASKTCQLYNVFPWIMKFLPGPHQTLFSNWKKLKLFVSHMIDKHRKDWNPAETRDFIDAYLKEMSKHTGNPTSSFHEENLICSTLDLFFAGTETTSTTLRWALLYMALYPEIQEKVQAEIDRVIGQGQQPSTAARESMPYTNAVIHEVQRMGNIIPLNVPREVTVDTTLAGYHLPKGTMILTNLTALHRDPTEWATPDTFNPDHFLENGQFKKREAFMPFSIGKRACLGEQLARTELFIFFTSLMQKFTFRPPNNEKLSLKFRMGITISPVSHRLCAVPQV
- protocolDetails: in vitro
- details: recombinant CYP2J2, probe terfenadine (hydroxylation)
Structures can show the parent of a compound that is named as a salt.

INSERT INTO measurements (compound, propertylabel, reportedvalue) VALUES
  ('COc1ccc(CCN2CCC(Nc3nc4ccccc4n3Cc3ccc(F)cc3)CC2)cc1 [ASTEMIZOLE]', 'activity at 5 min, 30 µM', '8.3%'),
  ('O=C(CCCN1CCC(O)(c2ccc(Cl)cc2)CC1)c1ccc(F)cc1 [HALOPERIDOL]', 'activity at 5 min, 30 µM', '15.6%'),
  ('Fc1ccc([C@@H]2CCNC[C@H]2COc2ccc3c(c2)OCO3)cc1 [PAROXETINE HYDROCHLORIDE]', 'activity at 5 min, 30 µM', '31.6%'),
  ('COC(=O)C1=C(C)NC(C)=C(C(=O)OC(C)C)C1c1cccc2nonc12 (configuration not stated) [ISRADIPINE]', 'activity at 5 min, 30 µM', '23.7%'),
  ('CCOC(=O)[C@H](CCc1ccccc1)N[C@@H](C)C(=O)N1Cc2ccccc2C[C@H]1C(=O)O', 'activity at 5 min, 30 µM', '51.4%'),
  ('CC(=O)N1CCN(c2ccc(OCC3COC(Cn4ccnc4)(c4ccc(Cl)cc4Cl)O3)cc2)CC1 (configuration not stated) [KETOCONAZOLE]', 'activity at 5 min, 30 µM', '5.8%');

Using the record for CSc1ccc2c(c1)N(CCC1CCCCN1C)c1ccccc1S2 (configuration not stated) [THIORIDAZINE] , state its measured activity at 5 min, 30 µM.
51.7%

Quick one: give measured activity at 5 min, 30 µM for CCN(CC)Cc1cc(Nc2ccnc3cc(Cl)ccc23)ccc1O [AMODIAQUINE]
22.5%

Please give the documented activity at 5 min, 30 µM of Clc1ccc(COC(Cn2ccnc2)c2ccc(Cl)cc2Cl)c(Cl)c1 (configuration not stated) [MICONAZOLE]
3.4%

Specify reported activity at 5 min, 30 µM for the compound shown: CCN(CC)CCOc1ccc(C(=C(Cl)c2ccccc2)c2ccccc2)cc1 [CLOMIPHENE]
44.2%

Specify reported activity at 5 min, 30 µM for the compound shown: O=c1c(O)c(-c2ccc(O)c(O)c2)oc2cc(O)cc(O)c12 [QUERCETIN]
29.8%

Name the recorded activity at 5 min, 30 µM of the item CCCC1O[C@@H]2C[C@H]3[C@@H]4CCC5=CC(=O)C=C[C@]5(C)[C@H]4[C@@H](O)C[C@]3(C)[C@]2(C(=O)CO)O1 (some centres not stated) [BUDESONIDE] in your answer.
50.8%
